Target: UniProt P14902
Test: % inhibition at […], capillary electrophoresis enzyme assay
Assay type: biochemical
// reported inhibition at 100 µM for each item listed
// note: answer is a bare numeric in %

COc1cc(/C=C/C(=O)O[C@@H]2C[C@@](O)(C(=O)O)C[C@@H](O)[C@@H]2O)ccc1O [compound 4, 3-O-Feruloylquinic acid]    16.4
O=C(/C=C/c1ccc(O)c(O)c1)O[C@H]1[C@H](O)C[C@](O)(C(=O)O)C[C@H]1O [compound 3, Cryptochlorogenic acid]    11.8

From here, focus on the item given below.
Query: inhibition at 100 µM; subject: O=C(/C=C/c1ccc(O)c(O)c1)O[C@H]1[C@H](O)C[C@](O)(C(=O)O)C[C@H]1OC(=O)/C=C/c1ccc(O)c(O)c1 [compound 8, Isochlorogenic acid B] 19.1

====

Reported values of inhibition at 100 µM for individual entries
Biological target: indoleamine 2,3-dioxygenase 1 (IDO1) (Homo sapiens)
Sequence (P14902 whole entry): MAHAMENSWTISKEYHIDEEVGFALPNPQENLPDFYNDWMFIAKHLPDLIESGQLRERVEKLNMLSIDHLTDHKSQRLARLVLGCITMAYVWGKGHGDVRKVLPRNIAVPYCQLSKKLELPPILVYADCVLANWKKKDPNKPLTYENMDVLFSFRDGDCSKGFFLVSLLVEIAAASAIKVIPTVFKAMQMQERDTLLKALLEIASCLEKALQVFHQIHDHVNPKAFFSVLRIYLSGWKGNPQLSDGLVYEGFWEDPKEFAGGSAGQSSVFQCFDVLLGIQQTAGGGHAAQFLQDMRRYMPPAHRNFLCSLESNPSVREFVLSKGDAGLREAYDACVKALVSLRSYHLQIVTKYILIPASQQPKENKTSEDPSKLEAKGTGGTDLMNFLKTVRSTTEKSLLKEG
Assay: % inhibition at […], capillary electrophoresis enzyme assay
Type: biochemical
Report only the number, with the unit % understood.

Solved entries (count: 2):
O=C(/C=C/c1ccc(O)c(O)c1)O[C@@H]1C[C@@](O)(C(=O)O)C[C@@H](O)[C@@H]1O    10.9
O=C(/C=C/c1ccc(O)c(O)c1)O[C@@H]1[C@H](O)C[C@@](O)(C(=O)O)C[C@H]1OC(=O)/C=C/c1ccc(O)c(O)c1    10.9

Consider the record given below.
Which value of inhibition at 100 µM has been reported for "COc1cc(/C=C/C(=O)O[C@@H]2C[C@](O)(C(=O)O)C[C@@H](O)[C@H]2O)ccc1O" in the records? 12.7
